molecular target: UniProt P35222; assay: KD50 measurement using competitive fluorescence polarization (FP) with labelled TCF4; format: binding; conditions: fluorescence polarization, β-catenin; read-out: β-Cat FP KD
pKd: −log10 of the molar value. Where a SMILES comes first, the peptide text is derived from it.
Recorded endpoint: pKd

CC[C@H](C)[C@H](NC(=O)[C@H](CC(C)C)NC(=O)[C@H](Cc1ccccc1)NC(=O)[C@H](Cc1c[nH]c2ccccc12)NC(=O)[C@H](CCSC)NC(=O)[C@H](CCCNC(=N)N)NC(=O)[C@H](CO)NC(=O)[C@@H](N)CCCCN)C(=O)N[C@@H](CO)C(=O)N[C@@H](Cc1ccccc1)C(=O)N[C@@H](Cc1c[nH]c2ccccc12)C(N)=O [compound 83] (H-KSRMWFLISFW-NH2): < 4.52
CC[C@H](C)[C@H](NC(=O)[C@H](CC(C)C)NC(=O)[C@H](Cc1ccccc1)NC(=O)[C@H](Cc1c[nH]c2ccccc12)NC(=O)[C@@H](N)CCSC)C(=O)N[C@@H](CS)C(=O)N[C@@H](C)C(=O)N[C@@H](Cc1c[nH]c2ccccc12)C(=O)NCC(=O)O [compound 211] (H-MWFLICAWG-OH): 5.00 to 6.00

====

Recorded measurements of Kd, one per entry
target: β-catenin (Homo sapiens, UniProt P35222); test: KD50 measurement using competitive fluorescence polarization (FP) with labelled TCF4; type: binding; conditions: fluorescence polarization, β-catenin; read-out: β-Cat FP KD
Sequence (P35222 whole entry): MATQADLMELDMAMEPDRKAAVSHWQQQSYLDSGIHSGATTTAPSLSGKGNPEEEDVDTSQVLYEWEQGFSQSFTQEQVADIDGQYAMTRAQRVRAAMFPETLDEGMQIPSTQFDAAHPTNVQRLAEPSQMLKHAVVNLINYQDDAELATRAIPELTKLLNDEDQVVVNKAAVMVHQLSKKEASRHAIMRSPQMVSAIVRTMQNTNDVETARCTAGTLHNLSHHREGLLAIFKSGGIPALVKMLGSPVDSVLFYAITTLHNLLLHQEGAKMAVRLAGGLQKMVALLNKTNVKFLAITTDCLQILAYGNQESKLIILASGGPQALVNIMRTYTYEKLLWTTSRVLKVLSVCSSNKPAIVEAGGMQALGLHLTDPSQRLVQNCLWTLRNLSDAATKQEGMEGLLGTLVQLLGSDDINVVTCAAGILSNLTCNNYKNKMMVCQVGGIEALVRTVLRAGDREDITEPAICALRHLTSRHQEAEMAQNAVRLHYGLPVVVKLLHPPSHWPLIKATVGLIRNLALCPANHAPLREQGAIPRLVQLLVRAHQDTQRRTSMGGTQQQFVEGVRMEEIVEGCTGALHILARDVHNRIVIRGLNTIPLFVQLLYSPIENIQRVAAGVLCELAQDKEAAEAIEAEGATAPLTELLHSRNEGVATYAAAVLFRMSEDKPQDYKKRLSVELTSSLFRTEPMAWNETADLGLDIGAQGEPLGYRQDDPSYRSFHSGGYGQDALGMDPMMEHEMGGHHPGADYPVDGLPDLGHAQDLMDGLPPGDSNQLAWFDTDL
*1 amine or outer side, *2 acyl side, *3 side chain or, on linkers, in order; H or OH if unused. Where a SMILES comes first, the peptide text is derived from it. [ ]: non-standard residue; d: D form. ξ: configuration not given here. X4 = CC[C@@H](C)C(N[*:1])C(=O)[*:2]; ξW = NC(Cc1c[nH]c2ccccc12)C(=O)O; ξL = CC(C)CC(N)C(=O)O; ξC = NC(CS)C(=O)O; βAla = NCCC(=O)O
Recorded endpoint: Kd

CC[C@H](C)[C@@H]1NC(=O)[C@H](CC(C)C)NC(=O)[C@H](Cc2ccccc2)NC(=O)[C@H](Cc2c[nH]c3ccccc23)NC(=O)[C@@H](N)CCCCNC(=O)CCCCCNC(=O)C[C@@H](C(=O)O)NC(=O)[C@H](Cc2c[nH]c3ccccc23)NC(=O)[C@H](C)NC(=O)[C@H](CS)NC1=O [compound 249] (HELM PEPTIDE1{K.W.F.L.I.C.A.W.[O=C(O)[C@H](CC(=O)[*:2])N[*:1]].[O=C(CCCCCN[*:1])[*:2]]}$PEPTIDE1,PEPTIDE1,1:R3-10:R2$$$V2.0): 0.4 to 1 µM
CC[C@H](C)[C@@H]1NC(=O)[C@H](CC(C)C)NC(=O)[C@H](Cc2ccccc2)NC(=O)[C@H](Cc2c[nH]c3ccccc23)NC(=O)[C@H](CCSC)NC(=O)CCCCCNC(=O)C[C@@H](C(=O)O)NC(=O)[C@H](Cc2c[nH]c3ccccc23)NC(=O)[C@H](Cc2ccccc2)NC(=O)[C@H](CS)NC1=O [compound 189] (HELM PEPTIDE1{[O=C(CCCCCN[*:1])[*:2]].M.W.F.L.I.C.F.W.D}$PEPTIDE1,PEPTIDE1,1:R1-10:R3$$$V2.0): 0.4 to 1 µM
CC[C@H](C)[C@@H]1NC(=O)[C@H](CC(C)C)NC(=O)[C@H](C(C)(C)C)NC(=O)[C@H](Cc2c[nH]c3ccccc23)NC(=O)[C@@H](N)CCCCNC(=O)C[C@@H](C(=O)O)NC(=O)[C@H](Cc2c[nH]c3ccccc23)NC(=O)[C@H](C)NC(=O)[C@H](CO)NC1=O [compound 205] (HELM PEPTIDE1{K.W.[CC(C)(C)[C@H](N[*:1])C(=O)[*:2]].L.I.S.A.W.D}$PEPTIDE1,PEPTIDE1,1:R3-9:R3$$$V2.0): > 30 µM
CC[C@H](C)[C@@H]1NC(=O)[C@H](CC(C)C)NC(=O)[C@H](Cc2ccccc2)NC(=O)[C@H](Cc2c[nH]c3ccccc23)NC(=O)[C@H](CCSC)NC(=O)[C@@H](N)CCCCNC(=O)C[C@@H](C(=O)O)NC(=O)[C@H](Cc2c[nH]c3ccccc23)NC(=O)[C@H](Cc2ccccc2)NC(=O)[C@H](CO)NC1=O [compound 171] (HELM PEPTIDE1{K.M.W.F.L.I.S.F.W.D}$PEPTIDE1,PEPTIDE1,1:R3-10:R3$$$V2.0): 1 to 10 µM
CCOC[C@H](NC(=O)[C@H](CO)NC(=O)[C@@H](NC(=O)[C@H](CC(C)C)NC(=O)[C@H](Cc1ccccc1)NC(=O)[C@H](Cc1c[nH]c2ccccc12)NC(=O)[C@H](CCSC)NC(=O)[C@H](CCCNC(=N)N)NC(=O)[C@H](CO)NC(=O)[C@@H](N)CCSC)[C@@H](C)CC)C(=O)N[C@@H](Cc1c[nH]c2ccccc12)C(=O)O [compound 105] (H-MSRMWFLISS(Et)W-OH): 1 to 10 µM
CC[C@H](C)[C@H](NC(=O)[C@H](CC(C)C)NC(=O)[C@@H](N)Cc1ccccc1)C(=O)N[C@@H](CO)C(=O)N[C@@H](Cc1ccccc1)C(=O)N[C@@H](Cc1c[nH]c2ccccc12)C(=O)NCC(=O)O [compound 241] (H-FLISFWG-OH): 1 to 10 µM
CC[C@H](C)[C@@H]1NC(=O)[C@H](CC(C)C)NC(=O)[C@H]([C@@H](C)CC)NC(=O)[C@H](Cc2c[nH]c3ccccc23)NC(=O)[C@@H](NC(C)=O)CCCCNC(=O)CC[C@@H](C(=O)O)NC(=O)[C@H](Cc2c[nH]c3ccccc23)NC(=O)[C@H](C)NC(=O)[C@H](CO)NC1=O [compound 188] (HELM PEPTIDE1{[ac].K.W.I.L.I.S.A.W.E}$PEPTIDE1,PEPTIDE1,2:R3-10:R3$$$V2.0): 10 to 30 µM
CC[C@H](C)[C@H](NC(=O)[C@H](CC(C)C)NC(=O)[C@H](Cc1ccccc1)NC(=O)[C@H](Cc1c[nH]c2ccccc12)NC(=O)[C@@H](N)CCSC)C(=O)N[C@@H](Cc1c[nH]cn1)C(=O)N[C@@H](Cc1ccccc1)C(=O)N[C@@H](Cc1c[nH]c2ccccc12)C(=O)NCC(=O)O [compound 163] (H-MWFLIHFWG-OH): > 30 µM
CC[C@H](C)[C@@H]1NC(=O)[C@H](CC(C)C)NC(=O)[C@H](Cc2ccccc2)NC(=O)[C@H](Cc2c[nH]c3ccccc23)NC(=O)CCCCCNC(=O)C[C@@H](C(=O)O)NC(=O)[C@H](Cc2c[nH]c3ccccc23)NC(=O)[C@H](C)NC(=O)[C@H](CS)NC1=O [compound 245] (HELM PEPTIDE1{[O=C(CCCCCN[*:1])[*:2]].W.F.L.I.C.A.W.D}$PEPTIDE1,PEPTIDE1,1:R1-9:R3$$$V2.0): < 0.4 µM
CC[C@@H](C)C(NC(=O)C(CC(C)C)NC(=O)[C@H](Cc1ccccc1)NC(=O)C(Cc1c[nH]c2ccccc12)NC(=O)[C@H](CCCCN)NC(C)=O)C(=O)NC(CS)C(=O)N[C@@H](C)C(=O)NC(Cc1c[nH]c2ccccc12)C(=O)NCCC(=O)O (some centres unmarked) [compound 235] (Ac-K[ξW]F[ξL][X4][ξC]A[ξW][βAla]-OH): > 30 µM
CC[C@H](C)[C@H](NC(=O)[C@H](CC(C)C)NC(=O)[C@H](Cc1ccccc1)NC(=O)[C@H](Cc1c[nH]c2ccccc12)NC(=O)[C@@H](N)CCSC)C(=O)N[C@@H](CS)C(=O)N[C@@H](Cc1ccccc1)C(=O)N[C@@H](Cc1c[nH]c2ccccc12)C(=O)N(C)CC(=O)O [compound 213] (HELM PEPTIDE1{M.W.F.L.I.C.F.W.[Sar]}$$$$V2.0): 1 to 10 µM

====

details: % Viability non-Wnt responsive cells
Where a SMILES comes first, the peptide text is derived from it.
Recorded endpoint: viability (%)

CC[C@H](C)[C@H](NC(=O)[C@H](CC(C)C)NC(=O)[C@H](Cc1ccccc1)NC(=O)[C@H](Cc1c[nH]c2ccccc12)NC(=O)[C@H](Cc1ccccc1)NC(=O)[C@H](CCCNC(=N)N)NC(=O)[C@H](CO)NC(=O)[C@@H](N)CCSC)C(=O)N[C@@H](CO)C(=O)N[C@@H](Cc1ccccc1)C(=O)N[C@@H](Cc1c[nH]c2ccccc12)C(N)=O [compound 77] (H-MSRFWFLISFW-NH2): 107
CC[C@H](C)[C@H](NC(=O)[C@H](CC(C)C)NC(=O)[C@@H](NC(=O)[C@H](Cc1c[nH]c2ccccc12)NC(=O)[C@H](CCSC)NC(=O)[C@@H](N)CCCNC(=N)N)[C@@H](C)CC)C(=O)N[C@@H](CS)C(=O)N[C@@H](Cc1ccccc1)C(=O)N[C@@H](Cc1c[nH]c2ccccc12)C(=O)NCC(=O)O [compound 115] (H-RMWILICFWG-OH): 116
CC[C@H](C)[C@H](NC(=O)[C@H](CC(C)C)NC(=O)[C@H](Cc1ccccc1)NC(=O)[C@H](Cc1c[nH]c2ccccc12)NC(=O)[C@H](CCSC)NC(=O)[C@H](CCCNC(=N)N)NC(=O)[C@H](CO)NC(=O)[C@@H](N)Cc1c[nH]cn1)C(=O)N[C@@H](CO)C(=O)N[C@@H](Cc1ccccc1)C(=O)N[C@@H](Cc1c[nH]c2ccccc12)C(N)=O [compound 89] (H-HSRMWFLISFW-NH2): 107
CC[C@H](C)[C@H](NC(=O)[C@H](CC(C)C)NC(=O)[C@H](Cc1ccccc1)NC(=O)[C@H](Cc1c[nH]c2ccccc12)NC(=O)[C@@H](N)CCSC)C(=O)N[C@@H](CO)C(=O)N[C@@H](Cc1ccccc1)C(=O)N[C@@H](Cc1c[nH]c2ccccc12)C(N)=O [compound 107] (H-MWFLISFW-NH2): 100
CC[C@H](C)[C@H](NC(=O)[C@H](Cc1c[nH]c2ccccc12)NC(=O)[C@@H](N)CCSC)C(=O)N[C@@H](CC(C)C)C(=O)N[C@H](C(=O)N[C@H](C(=O)N[C@@H](Cc1ccccc1)C(=O)N[C@@H](Cc1c[nH]c2ccccc12)C(=O)NCC(=O)O)[C@@H](C)O)[C@@H](C)CC [compound 150] (H-MWILITFWG-OH): 99.8
CC[C@H](C)[C@@H]1NC(=O)[C@H](CC(C)C)NC(=O)[C@H]([C@@H](C)CC)NC(=O)[C@H](Cc2c[nH]c3ccccc23)NC(=O)[C@@H](N)CCCCNC(=O)CC[C@@H](C(=O)O)NC(=O)[C@H](Cc2c[nH]c3ccccc23)NC(=O)[C@H](Cc2ccccc2)NC(=O)[C@H](CO)NC1=O [compound 182] (HELM PEPTIDE1{K.W.I.L.I.S.F.W.E}$PEPTIDE1,PEPTIDE1,1:R3-9:R3$$$V2.0): 95.3
